system: HCT116 MTAP null cells; experiment: HCT116 MTAP null cell line proliferation (CellTiter-Glo cell viability, 6 days); assay type: cell-based; settings: HCT116-MTAP null, 144 h, HCT116 MTAP null cells, 6 days of treatment, CellTiter-Glo cell viability; read-out: HCT-116 MTAP null IC50
pIC50: −log10 of the molar value.
The entries below are paired with their reported pIC50.
readoutKind: pIC50

- C[C@@H]1COC[C@H](c2ccc(C(F)(F)F)cn2)N1C(=O)c1ccc2nc(N)c3c(cnn3C)c2c1: 7.52
- Nc1nc2ccc(C(=S)N3CCOC[C@@H]3c3ccc(C(F)(F)F)cc3)cc2c2c1COC2: 6.05
- Cn1ncc2c(N)nc3cc(F)c(C(=O)N4CC(c5ccc(C(F)(F)F)cn5)C4)cc3c21: 7.13
- C[C@@H]1COC[C@H](c2ccc(OC(F)(F)F)cc2)N1C(=O)c1cc2c3c(c(N)nc2cc1Cl)COC3: 8.40
